# Tested on: Rattus norvegicus
# EXPERIMENT_SUMMARY: Percent inhibition against ethanol-induced gastric lesions in male albino rat was determined at a dose of 25 mg/Kg
# Type: functional
# STUDY_CONDITIONS: Stomach
Classify by measured inhibition in vivo at 25 mg/kg: 1 if it is equal to or exceeds 60%, 0 if it is smaller.

INSERT INTO results (cpd_smiles, measured_on, category_label) VALUES
  ('S=C(Nc1cc(Cl)cc(Cl)c1)c1ccccn1', 'Rattus norvegicus', 1),
  ('Cc1ccc(NC(=S)c2ccccn2)cc1Cl', 'Rattus norvegicus', 0),
  ('O=C(Nc1cc(F)cc(F)c1)c1ccccn1', 'Rattus norvegicus', 0),
  ('CN(C(=S)c1ccccn1)c1cc(F)cc(F)c1', 'Rattus norvegicus', 0),
  ('COc1ccc(NC(=S)c2ccccn2)cc1Cl', 'Rattus norvegicus', 0),
  ('Fc1cc(F)cc(NC(=S)c2ccncc2)c1', 'Rattus norvegicus', 1),
  ('Fc1cc(F)cc(NC(=S)c2cccnc2)c1', 'Rattus norvegicus', 0),
  ('Fc1ccc(NC(=S)c2ccccn2)cc1Cl', 'Rattus norvegicus', 0);
